Entries annotated with measured IC50
Tested on: MOLM-13 cells
Assay: Resazurin combination toxicity assay
Assay type: cell-based, human
Conditions: Homo sapiens, MOLM-13, MOLM-13; variable VdU/VdA alone or with 1 μM PINK added 24 h post nucleoside addition; read-out: IC50 value (48 h) for sequential addition
Report only the number, with the unit µM understood.

[
  {
    "Structure Smiles String": "C=Cc1cn([C@H]2C[C@H](O)[C@@H](CO)O2)c(=O)[nH]c1=O",
    "Experimental Result": 18
  }
]

We now examine a further compound.
Checklist item: IC50 tested on MOLM-13 cells, entry C=Cc1cn([C@H]2C[C@H](O)[C@@H](CO)O2)c2ncnc(N)c12 , value? 3

* * *

System: MV4-11 cells
Test: Resazurin combination toxicity assay
Assay type: cell-based
Conditions: Homo sapiens, variable VdU/VdA alone or with 1 μM PINK added 24 h post nucleoside addition, read-out: IC50 value (48 h) for sequential addition
Experimental Endpoint: pIC50
Value format note: pIC50 is -log10 of concentration (mol/L); just state the number.

Fill in the recorded pIC50 for this compound, with MV4-11 cells as test system: C=Cc1cn([C@H]2C[C@H](O)[C@@H](CO)O2)c2ncnc(N)c12 4.60

State its pIC50 on MV4-11 cells: C=Cc1cn([C@H]2C[C@H](O)[C@@H](CO)O2)c(=O)[nH]c1=O 4.22

* * *

Recorded pIC50 for the following compounds
System: Jurkat cells
Test: Resazurin single toxicity assay
Assay type: cell-based
Conditions: Homo sapiens, 24 h incubation, compound alone, read-out: IC50 value (24 h)
Entry type: numeric. Quantity: pIC50, the -log10 of concentration in molar units.

[
  {
    "Compound": "Cc1nnc(-c2ccc3cc4ccc(N(C)C)cc4nc3c2)nn1 [PINK]",
    "pIC50": 5.15
  }
]

We now examine a further compound.
# query: pIC50 of entry C=Cc1cn([C@H]2C[C@H](O)[C@@H](CO)O2)c2ncnc(N)c12 [VdA, 7-vinyl-7-deaza-2′-deoxyadenosine] 4.17
